Cited source for all entries: patent EP0753513A2

# Tested on: Candida albicans IFO1270
# assayExplanation: Growth inhibition of Candida albicans in Sabouraud's glucose broth (Test Example 1)
# Assay type: cell-based
# particulars: 0.1 µg/ml test compound, two days incubation at 37°C under shaking
testReadout: Growth inhibition ratio 0.1 µg/ml (%)

| compound | unitDescriptor | measuredValue |
| --- | --- | --- |
| C[C@@H](Cc1ccc(F)cc1)[C@](O)(Cn1cncn1)c1ccc(F)cc1F [Compound 1] | % | 48 |
| C[C@@H](Cc1ccc(F)cc1F)[C@](O)(Cn1cncn1)c1ccc(F)cc1F [Compound 2] | % | 51 |
| CC(=O)N1CCN(c2ccc(OC[C@H]3CO[C@](Cn4ccnc4)(c4ccc(Cl)cc4Cl)O3)cc2)CC1 (relative stereo) [A, reference compound] | % | 47 |
| C[C@@H](Cc1ccc(C#N)cc1)[C@](O)(Cn1cncn1)c1ccc(F)cc1F [Compound 7] | % | 55 |

====

Survival ratio (%) values, listed per item
# Test system: Candida albicans IFO1270
# assayExplanation: Survival of mice inoculated with Candida albicans after oral treatment (Test Example 2)
# Format: in vivo
# particulars: ddY mice; 0.5% aqueous CMC solution containing 0.02% of test compound, orally, 5 ml/kg once a day for 4 days; survival ratio on final day (10 days following inoculation)

| compound | unitDescriptor | Survival ratio (%) |
| --- | --- | --- |
| C[C@@H](Cc1ccc(F)cc1)[C@](O)(Cn1cncn1)c1ccc(F)cc1F | % | 80 |
| CC(=O)N1CCN(c2ccc(OC[C@H]3CO[C@](Cn4ccnc4)(c4ccc(Cl)cc4Cl)O3)cc2)CC1 (relative stereo) [A, reference compound] | % | 40 |
| C[C@@H](Cc1ccc(C#N)cc1)[C@](O)(Cn1cncn1)c1ccc(F)cc1F | % | 100 |
| C[C@@H](Cc1ccc(F)cc1F)[C@](O)(Cn1cncn1)c1ccc(F)cc1F | % | 60 |
